Test system: SF-295
Test: NCI tumour cell line growth inhibition, 48 h
Activity calls are given as the source filed them. No stated cut-off is given here; in the data, active = GI50 up to about 1.1 µM and inactive = higher.
Returns: one label drawn from 1 (active), -1 (inactive)

Query :: Please state the recorded outcome for this compound: Cc1nc2ccccc2c(=O)n1NC(=O)c1ccccc1O
Result :: -1

* * *

Test system: HOP-62
Assay: NCI tumour cell line growth inhibition, 48 h
Calls of active or inactive are those of the source. Rule as the data show it: active = GI50 up to about 1.1 µM and inactive = higher.
# GI50 listing for each entry below

// worked examples, GI50 included
Query :: Any idea what its GI50 is? The molecule is CC(=O)O[C@H]1C[C@H]2[C@@H]([C@H](OC(C)=O)C[C@@H]3CC4(CC[C@@]32C)OOC2(CCCCC2)OO4)[C@@H]2CC[C@H]([C@H](C)CCC(=O)O)[C@@]12C
Result :: 2.45 µM (inactive)

Query :: Consider next the molecule CN(C)Cc1cc(C(=O)/C=C/c2ccc(Cl)cc2)cc(CN(C)C)c1O in the same way.
Result :: 4.36 µM (inactive)

Query :: Again, but for O=C(CC(C(=O)c1ccco1)c1ccco1)c1ccco1 (stereo unspecified)
Result :: > 100 µM (inactive)

Query :: What do we get for CCCCCCCCCCCCCCCC[N+](C)(C)CCl ?
Result :: 2.29 µM (inactive)

Query :: Try the molecule N#C/C(=C\c1cccc(Cl)c1Cl)c1ccccc1
Result :: 37 µM (inactive)

Alright, here's another molecule for you.
Query :: So what's the measured GI50 for this one? Cc1ccc(N2C(=O)C3CSCN3C2=O)cc1 (stereo unspecified)
Result :: > 100 µM (inactive)

The origin of these recorded values is ChEMBL document CHEMBL1201862.
